For Vasopressin V2 receptor (Homo sapiens, UniProt P30518), measured AC50 is reported for the entries below.
VALUE TYPE: AC50

>>> result("C[C@]1(O)CC[C@H]2[C@@H]3CCC4=CC(=O)CC[C@]4(C)[C@@]3(F)[C@@H](O)C[C@@]21C [FLUOXYMESTERONE]")
"> 10 µM"
>>> result("CN(C)CCc1c[nH]c2ccc(C[C@H]3COC(=O)N3)cc12 [ZOLMITRIPTAN]")
"> 30 µM"
>>> result("Cc1ccc(-n2nccn2)c(C(=O)N2CCN(c3nc4cc(Cl)ccc4o3)CC[C@H]2C)c1 [SUVOREXANT]")
"> 30 µM"
>>> result("COC(=O)C1=C(C)NC(C)=C(C(=O)OC(C)(C)CN(C)CCC(c2ccccc2)c2ccccc2)C1c1cccc([N+](=O)[O-])c1 (stereo unspecified) [LERCANIDIPINE]")
"> 30 µM"
>>> result("C[C@H]1COc2c(C3(N)CC3)c(F)cc3c(=O)c(C(=O)O)cn1c23 [PAZUFLOXACIN]")
"> 10 µM"
>>> result("CO[C@H]1C[C@@H]2CC[C@@H](C)[C@@](O)(O2)C(=O)C(=O)N2CCCC[C@H]2C(=O)O[C@H]([C@H](C)C[C@@H]2CC[C@@H](O)[C@H](OC)C2)CC(=O)[C@H](C)/C=C(\\C)[C@@H](O)[C@@H](OC)C(=O)[C@H](C)C[C@H](C)/C=C/C=C/C=C/1C [SIROLIMUS]")
"> 30 µM"

* * *

Item-by-item account of AC50
# STUDY TARGET: UniProt P35348
# Sequence (P35348 whole entry): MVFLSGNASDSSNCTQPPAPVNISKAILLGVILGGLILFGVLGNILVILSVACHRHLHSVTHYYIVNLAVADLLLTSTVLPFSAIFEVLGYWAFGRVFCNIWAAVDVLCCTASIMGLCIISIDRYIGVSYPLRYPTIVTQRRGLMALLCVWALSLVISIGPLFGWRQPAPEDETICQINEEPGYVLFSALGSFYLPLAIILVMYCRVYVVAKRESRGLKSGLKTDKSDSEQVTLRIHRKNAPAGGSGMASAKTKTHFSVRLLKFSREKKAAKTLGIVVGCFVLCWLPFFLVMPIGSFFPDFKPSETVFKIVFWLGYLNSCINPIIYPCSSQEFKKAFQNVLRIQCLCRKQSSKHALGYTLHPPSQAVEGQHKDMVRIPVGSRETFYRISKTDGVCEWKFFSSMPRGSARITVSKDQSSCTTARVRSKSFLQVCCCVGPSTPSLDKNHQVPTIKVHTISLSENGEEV
VALUE TYPE: AC50

>>> result("NS(=O)(=O)Cc1noc2ccccc12 [ZONISAMIDE]")
"> 10 µM"
>>> result("COc1ccc2c3c1O[C@H]1[C@@H](O)C=C[C@H]4[C@@H](C2)N(C)CC[C@@]341")
"> 10 µM"
>>> result("CS(=O)(=O)c1ccc(C2=C(c3ccccc3)C(=O)OC2)cc1")
"> 10 µM"
>>> result("COc1ccccc1OCCNCC(O)c1ccc(C)c(S(N)(=O)=O)c1 (stereo not given)")
"0.3 µM"
>>> result("CC=CC(=O)N(CC)c1ccccc1C")
"> 10 µM"
>>> result("Cc1cccc(C(C)c2cnc[nH]2)c1C (stereo not given)")
"0.11 µM"
>>> result("CC/C(=C(\\c1ccccc1)c1ccc(OCCN(C)C)cc1)c1ccccc1")
"> 10 µM"
>>> result("COc1ccc(C(=O)Nc2ccccc2CCC2CCCCN2C)cc1 (stereo not given) [ENCAINIDE]")
"> 10 µM"
>>> result("CN1[C@@H]2CC[C@H]1C[C@@H](OC(c1ccccc1)c1ccccc1)C2")
"0.078 µM"
>>> result("C=CCC1(CC(C)C)C(=O)NC(=O)NC1=O")
"> 30 µM"
>>> result("Clc1ccccc1C(c1ccccc1)(c1ccccc1)n1ccnc1")
"> 10 µM"
>>> result("CN1C(=O)OC(C)(C)C1=O")
"> 10 µM"
>>> result("O=C(NCCN1CCOCC1)c1ccc(Cl)cc1 [MOCLOBEMIDE]")
"> 10 µM"
>>> result("O=C1C(O)=C([C@H]2CC[C@H](c3ccc(Cl)cc3)CC2)C(=O)c2ccccc21")
"> 30 µM"
>>> result("CCCCCNC(=N)N/N=C/c1c[nH]c2ccc(OC)cc12")
"2.05 µM"
>>> result("CN1C(C(=O)Nc2ccccn2)=C(O)c2sc(Cl)cc2S1(=O)=O")
"> 10 µM"
>>> result("CC1(C)NC(=O)N(c2ccc([N+](=O)[O-])c(C(F)(F)F)c2)C1=O [NILUTAMIDE]")
"> 30 µM"
>>> result("COC(=O)C1=C(C)NC(C)=C(C(=O)OC2CCCN(Cc3ccccc3)C2)C1c1cccc([N+](=O)[O-])c1 (stereo not given)")
"3 µM"
>>> result("CC(C)(C)NCC(O)COc1cccc2c1CCC(=O)N2 (stereo not given)")
"> 10 µM"
>>> result("CC[C@@H]1C(=O)OC[C@@H]1Cc1cncn1C")
"> 10 µM"

These data points were gathered from ChEMBL document CHEMBL5291721.
